assay: Pharmacokinetics in Yucatan mini-pigs, single subcutaneous or intravenous dose; format: in vivo; conditions: male, Yucatan mini-pig, minipig, plasma, iv, 19 nmol/kg, single intravenous dose 19 nmol/kg, individual animal
*1 amine or outer side, *2 acyl side, *3 side chain or, on linkers, in order; H or OH if unused. Side-chain parts run from the residue outwards. [ ]: non-standard residue; d: D form. The star is where a group is joined. C20 diacid = O=C(O)CCCCCCCCCCCCCCCCCCC(=O)*; γGlu = O=C(O)[C@H](CCC(=O)[*:2])N[*:1]; εLys = N[C@@H](CCCCN[*:1])C(=O)[*:2]; αMeL = CC(C)C[C@](C)(N)C(=O)O; AEEA = NCCOCCOCC(=O)O; Aib = CC(C)(N)C(=O)O
EXPERIMENTAL_READOUT: half-life (days)

Ac-GSPSIVTS[αMeL]DVPT[Aib][αMeL]LQKLLEQERAEKARQQAK([γGlu-AEEA-εLys-C20 diacid])EAAEILAQV-NH2 [SEQ ID NO: 2] = 3.98
Ac-PPPIVTS[αMeL]DVPT[Aib][αMeL]LQKLLEQERAEKARQQAK([γGlu-AEEA-εLys-C20 diacid])EAAEILAQV-NH2 [SEQ ID NO: 48] = 3.61
{C20 diacid-εLys-AEEA-γGlu}-GSPSIVTS[αMeL]DVPT[Aib][αMeL]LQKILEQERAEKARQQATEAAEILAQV-NH2 [SEQ ID NO: 25] = 4.42
Ac-GSPSIVTS[αMeL]DVPT[Aib][αMeL]LQKILEQERAEKARQQAK([γGlu-AEEA-εLys-C20 diacid])EAAEILAQV-NH2 [SEQ ID NO: 1] = 3.62

---

test: Pharmacokinetics in Sprague Dawley rats, single subcutaneous or intravenous dose (incl. 10, 30, 100 nmol/kg dose response); assay type: in vivo; conditions: male, Sprague Dawley, rat, plasma, sc, 10 nmol/kg, dose response, single subcutaneous dose 10 nmol/kg, individual animal
*1 amine or outer side, *2 acyl side, *3 side chain or, on linkers, in order; H or OH if unused. Side-chain parts run from the residue outwards. [ ]: non-standard residue; d: D form. The star is where a group is joined. C20 diacid = O=C(O)CCCCCCCCCCCCCCCCCCC(=O)*; γGlu = O=C(O)[C@H](CCC(=O)[*:2])N[*:1]; εLys = N[C@@H](CCCCN[*:1])C(=O)[*:2]; pGlu = O=C1CC[C@@H](C(=O)O)N1; αMeL = CC(C)C[C@](C)(N)C(=O)O; AEEA = NCCOCCOCC(=O)O; Aib = CC(C)(N)C(=O)O
EXPERIMENTAL_READOUT: half-life (h)

Ac-GSPSIVTS[αMeL]DVPT[Aib][αMeL]LQKILEQERAEKARQQAK([γGlu-AEEA-εLys-C20 diacid])EAAEILAQV-NH2 [SEQ ID NO: 1] = 26

[a] [pGlu]GSPSGIVTS[αMeL]DVPT[Aib][αMeL]LQKILEQERAEKARQQAK([γGlu-AEEA-εLys-C20 diacid])EAAEILAQV-NH2 [SEQ ID NO: 22]
[b] {C20 diacid-εLys-AEEA-γGlu}-GSPSIVTS[αMeL]DVPT[Aib][αMeL]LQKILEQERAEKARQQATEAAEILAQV-NH2 [SEQ ID NO: 25]
QUERY: Lab notebook, comparison: a versus b , higher half-life goes to which? When you have decided, please share the label of that item.
RESULT: a
(a: 30.4 h, b: 19.9 h)

---

assay: Pharmacokinetics in Yucatan mini-pigs, single subcutaneous or intravenous dose; format: in vivo; conditions: male, Yucatan mini-pig, minipig, plasma, sc, 18 nmol/kg, single subcutaneous dose 18 nmol/kg, Mean, read-out: Tmax
*1 amine or outer side, *2 acyl side, *3 side chain or, on linkers, in order; H or OH if unused. Side-chain parts run from the residue outwards. [ ]: non-standard residue; d: D form. The star is where a group is joined. C20 diacid = O=C(O)CCCCCCCCCCCCCCCCCCC(=O)*; γGlu = O=C(O)[C@H](CCC(=O)[*:2])N[*:1]; εLys = N[C@@H](CCCCN[*:1])C(=O)[*:2]; pGlu = O=C1CC[C@@H](C(=O)O)N1; αMeL = CC(C)C[C@](C)(N)C(=O)O; AEEA = NCCOCCOCC(=O)O; Aib = CC(C)(N)C(=O)O
EXPERIMENTAL_READOUT: Tmax (h)
Give just the number in h; leave the unit off.

QUERY: What measured Tmax goes with [pGlu]GSPSGIVTS[αMeL]DVPT[Aib][αMeL]LQKILEQERAEKARQQAK([γGlu-AEEA-εLys-C20 diacid])EAAEILAQV-NH2 [SEQ ID NO: 22] ?
RESULT: 15
